Target: T1, human programmed cell death protein 1 (hPD-1) C93S (aa 24-167) (Homo sapiens, UniProt Q15116, C93S)
T1 construct: made as a fusion with a TEV site and human Fc; the Fc was cut off with TEV protease; source: Expi293F, purified (Protein A, TEV cleavage of Fc, SEC; monomer fractions); not shown: Fc (human), C-terminal, cleaved
T1 sequence (Q15116 24-167 C93S): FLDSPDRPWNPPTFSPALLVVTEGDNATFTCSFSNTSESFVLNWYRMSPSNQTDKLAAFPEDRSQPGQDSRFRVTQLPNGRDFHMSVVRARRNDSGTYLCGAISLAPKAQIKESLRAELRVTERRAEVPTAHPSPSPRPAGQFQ
Assay: SPR; Carterra LSA; Fab from the ammonium sulfate precipitate of the culture supernatant immobilised on a NiHC200M chip; hPD-1 (1-1024 nM) or mPD-1-Fc (4-1024 nM) as analyte, fourfold dilution series, no regeneration; HBS-EP pH 7.4, 25 °C; medians over the spots of a construct, KD = koff/kon
Details: one partner purified
pKd: −log10 of the molar value.

{"Binder": "toripalimab Fab L.V99S (Fab, V domains shown, as the heavy chain of Sm3; light chain of Sm3 with this change; numbers count from the chain's first residue; source: Brevibacillus, culture supernatant (ammonium sulfate precipitate); not shown: 6xHis, C-terminal, kept; 6xHN, C-terminal, kept) VH: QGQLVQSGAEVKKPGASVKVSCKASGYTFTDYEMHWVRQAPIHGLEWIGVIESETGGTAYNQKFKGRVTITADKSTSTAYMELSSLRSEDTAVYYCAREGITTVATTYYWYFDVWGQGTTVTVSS VL: DVVMTQSPLSLPVTLGQPASISCRSSQSIVHSNGNTYLEWYLQKPGQSPQLLIYKVSNRFSGVPDRFSGSGSGTDFTLKISRVEAEDVGVYYCFQGSHSPLTFGQGTKLEIK", "Inequality Sign": ">", "pKd": 8.94}
{"Binder": "toripalimab Fab L.H31A (Fab, V domains shown, as the heavy chain of Sm3; light chain of Sm3 with this change; numbers count from the chain's first residue; source: Brevibacillus, culture supernatant (ammonium sulfate precipitate); not shown: 6xHis, C-terminal, kept; 6xHN, C-terminal, kept) VH: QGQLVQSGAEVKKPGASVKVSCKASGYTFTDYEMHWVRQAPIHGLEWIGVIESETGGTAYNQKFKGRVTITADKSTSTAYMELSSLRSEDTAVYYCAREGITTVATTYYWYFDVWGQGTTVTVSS VL: DVVMTQSPLSLPVTLGQPASISCRSSQSIVASNGNTYLEWYLQKPGQSPQLLIYKVSNRFSGVPDRFSGSGSGTDFTLKISRVEAEDVGVYYCFQGSHVPLTFGQGTKLEIK", "Inequality Sign": "=", "pKd": 7.24}
{"Binder": "toripalimab Fab H.G56Y (Fab, V domains shown, heavy chain of Sm3 with this change; numbers count from the chain's first residue; as the light chain of Sm3; source: Brevibacillus, culture supernatant (ammonium sulfate precipitate); not shown: 6xHis, C-terminal, kept; 6xHN, C-terminal, kept) VH: QGQLVQSGAEVKKPGASVKVSCKASGYTFTDYEMHWVRQAPIHGLEWIGVIESETYGTAYNQKFKGRVTITADKSTSTAYMELSSLRSEDTAVYYCAREGITTVATTYYWYFDVWGQGTTVTVSS VL: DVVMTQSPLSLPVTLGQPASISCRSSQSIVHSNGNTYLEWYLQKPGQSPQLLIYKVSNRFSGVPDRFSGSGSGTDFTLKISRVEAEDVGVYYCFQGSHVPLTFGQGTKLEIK", "Inequality Sign": ">", "pKd": 8.77}
{"Binder": "toripalimab Fab L.Q95A (Fab, V domains shown, as the heavy chain of Sm3; light chain of Sm3 with this change; numbers count from the chain's first residue; source: Brevibacillus, culture supernatant (ammonium sulfate precipitate); not shown: 6xHis, C-terminal, kept; 6xHN, C-terminal, kept) VH: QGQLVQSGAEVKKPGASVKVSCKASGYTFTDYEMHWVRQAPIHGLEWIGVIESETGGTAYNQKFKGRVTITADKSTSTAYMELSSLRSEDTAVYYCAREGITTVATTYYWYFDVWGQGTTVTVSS VL: DVVMTQSPLSLPVTLGQPASISCRSSQSIVHSNGNTYLEWYLQKPGQSPQLLIYKVSNRFSGVPDRFSGSGSGTDFTLKISRVEAEDVGVYYCFAGSHVPLTFGQGTKLEIK", "Inequality Sign": "=", "pKd": 8.64}
{"Binder": "toripalimab Fab L.R24A (Fab, V domains shown, as the heavy chain of Sm3; light chain of Sm3 with this change; numbers count from the chain's first residue; source: Brevibacillus, culture supernatant (ammonium sulfate precipitate); not shown: 6xHis, C-terminal, kept; 6xHN, C-terminal, kept) VH: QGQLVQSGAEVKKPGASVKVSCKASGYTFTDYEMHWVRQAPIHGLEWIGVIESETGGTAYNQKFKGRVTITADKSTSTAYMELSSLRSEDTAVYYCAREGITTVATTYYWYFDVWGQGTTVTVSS VL: DVVMTQSPLSLPVTLGQPASISCASSQSIVHSNGNTYLEWYLQKPGQSPQLLIYKVSNRFSGVPDRFSGSGSGTDFTLKISRVEAEDVGVYYCFQGSHVPLTFGQGTKLEIK", "Inequality Sign": ">", "pKd": 9.16}
